compounds and their reported MIC
System: B. subtilis ATCC 6633
Experiment: MIC, micro-dilution broth method
Format: cell-based, Bacillus subtilis
Settings: Bacillus subtilis, ATCC6633; Gram-positive bacteria; micro-dilution broth; read-out: MIC, B. subtilis ATCC 6633

See these solved cases before continuing.
query.smiles: Brc1cnc2[nH]c(-c3cccnc3)nc2c1
system.name: B. subtilis ATCC 6633
result.value: 1000 µg/mL
--
query.smiles: c1cnc2[nH]c(-c3ccncc3)nc2c1
system.name: B. subtilis ATCC 6633
result.value: 500 µg/mL
--
query.smiles: c1cncc(-c2nc3cccnc3[nH]2)c1
system.name: B. subtilis ATCC 6633
result.value: 1000 µg/mL

Exam item: So what's the measured MIC for this one? c1cc(-c2nc3ccncc3[nH]2)ccn1
Marked response: > 1000 µg/mL
